- subject of test: CDK2/Cyclin E complex (UniProt P24941 1-298; P24864 1-410)
- test details: cell-based or functional assay
Ends that are not written are not given here.
reported property: IC50, cyclin E/CDK2 kinase, GST-pRb

Recorded IC50, cyclin E/CDK2 kinase, GST-pRb, per entry:
>  <binder>
YHSKRRLI-NH2 [YHSKRRLI-NH2]

>  <IC50, cyclin E/CDK2 kinase, GST-pRb>
> 200 µM

$$$$
>  <binder>
YHSKRRL-NH2 [YHSKRRL-NH2]

>  <IC50, cyclin E/CDK2 kinase, GST-pRb>
> 200 µM

$$$$

[ask] What IC50, cyclin E/CDK2 kinase, GST-pRb value was documented for this binder, HSKRRL-NH2 [HSKRRL-NH2] ?
[reply] > 200 µM
